Task for the reader: assign each of the following compounds its reported inhibition at 1 µM.
molecular target: panel of 255 wild-type kinases (Homo sapiens, UniProt O15146); assay: Kinase panel profiling at 1 µmol/L (MSA or IMAP), percentage inhibition; format: biochemical; settings: MUSK; 1 µmol/L single concentration; read-out: %-inhibition, MUSK
Sequence (O15146 24-869): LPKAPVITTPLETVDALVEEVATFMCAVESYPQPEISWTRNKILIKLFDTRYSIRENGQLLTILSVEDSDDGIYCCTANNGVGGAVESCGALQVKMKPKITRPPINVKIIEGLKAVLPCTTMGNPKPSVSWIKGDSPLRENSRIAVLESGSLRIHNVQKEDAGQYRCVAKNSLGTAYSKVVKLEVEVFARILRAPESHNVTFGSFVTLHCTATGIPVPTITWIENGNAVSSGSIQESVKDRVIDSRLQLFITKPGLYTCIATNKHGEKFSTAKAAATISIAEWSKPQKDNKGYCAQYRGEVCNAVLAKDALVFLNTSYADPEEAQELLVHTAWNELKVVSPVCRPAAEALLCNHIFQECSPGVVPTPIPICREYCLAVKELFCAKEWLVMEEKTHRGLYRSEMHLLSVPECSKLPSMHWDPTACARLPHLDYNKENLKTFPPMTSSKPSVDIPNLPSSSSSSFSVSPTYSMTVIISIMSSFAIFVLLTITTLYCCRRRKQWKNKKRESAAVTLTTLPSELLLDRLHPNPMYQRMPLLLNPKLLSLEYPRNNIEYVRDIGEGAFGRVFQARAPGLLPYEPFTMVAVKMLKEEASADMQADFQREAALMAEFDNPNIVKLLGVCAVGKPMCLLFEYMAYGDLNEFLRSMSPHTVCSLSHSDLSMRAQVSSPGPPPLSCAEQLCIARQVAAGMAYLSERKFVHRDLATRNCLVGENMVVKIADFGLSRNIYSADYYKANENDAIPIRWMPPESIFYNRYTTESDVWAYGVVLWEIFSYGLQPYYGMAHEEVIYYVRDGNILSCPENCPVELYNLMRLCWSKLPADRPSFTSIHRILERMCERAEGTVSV
Numbers only, in %.

The following compounds have reported results that may help.
Task: Annotate the compound `CCn1c(=O)c(-c2cc(NC(=O)Nc3ccccc3)c(F)cc2Br)cc2cnc(NC)cc21` with its measured inhibition at 1 µM.
Result: 11

Task: Annotate the compound `Cn1cc(-c2cc3c(N4CCN(c5ncc([C@@](C)(N)c6ccc(F)cc6)cn5)CC4)ncnn3c2)cn1` with its measured inhibition at 1 µM.
Result: 63

Task: Please indicate inhibition at 1 µM recorded for `CO[C@]1(C(=O)N[C@@H](C)c2ccc(-n3cc(F)cn3)nc2)CC[C@H](c2nc(C)cc(Nc3cc(C)[nH]n3)n2)CC1`
Result: 73

Shift focus to the following entry.
Task: Using known records, supply inhibition at 1 µM for `Cc1nc(NC(=O)N2CCC[C@H]2C(N)=O)sc1-c1ccnc(C(C)(C)C(F)(F)F)c1`
Result: -8
